target: soluble DRB1*0401 molecules (DR4) (Homo sapiens, UniProt P01903+P01911, A100K/A169T/F76Y/I96L/K127E/L162R/M171V/N62H/P40V/Q125Y/R42H/S133A/S149N/S66Y/V115G/V209L/W38E); construct: Soluble HLA class I A*0201 and HLA class II DRA1*0101/DRB1*0101/Ii, DRA1*0101/DRB1*0401/Ii and DRA1*0101/DRB1*0404/Ii molecules were expressed in SC-2 cells; made in house; host or cells: SC-2 cells; format: binding; parameters: key: −: no binding; +/−: weak binding; +: intermediate binding; ++: strong binding; details: individual pp65 15mer, SDS-stability assay
parameter: Binding to DRB1*0401

- sequence-chain: "NLKYQEFFWDANDIY [Peptide 507]"
  assay-value: "+/−"
- sequence-chain: "VYYTSAFVFPTKDVA [Peptide 180]"
  assay-value: "+/−"
- sequence-chain: "LKYQEFFWDANDIYR [Peptide 508]"
  assay-value: "+/−"
- sequence-chain: "TRGRLKAESTVAPEE [Peptide 452]"
  assay-value: "+"
- sequence-chain: "PDVYYTSAFVFPTKD [Peptide 178]"
  assay-value: "++"
- sequence-chain: "TWDRHDEGAAQGDDD [Peptide 384]"
  assay-value: "+"
- sequence-chain: "VSQYTPDSTPCHRGD [Peptide 58]"
  assay-value: "++"
- sequence-chain: "HTWDRHDEGAAQGDD [Peptide 383]"
  assay-value: "+/−"
- sequence-chain: "QYTPDSTPCHRGDNQ [Peptide 60]"
  assay-value: "++"
- sequence-chain: "DVYYTSAFVFPTKDV [Peptide 179]"
  assay-value: "+"
- sequence-chain: "KEPDVYYTSAFVFPT [Peptide 176]"
  assay-value: "+/−"
- sequence-chain: "LVSQYTPDSTPCHRG [Peptide 57]"
  assay-value: "++"
- sequence-chain: "GVMTRGRLKAESTVA [Peptide 449]"
  assay-value: "+/−"
- sequence-chain: "VMTRGRLKAESTVAP [Peptide 450]"
  assay-value: "+"
- sequence-chain: "GRLKAESTVAPEEDT [Peptide 454]"
  assay-value: "+"
- sequence-chain: "YTPDSTPCHRGDNQL [Peptide 61]"
  assay-value: "++"
